- Tested Target: full-length beta-Catenin (Uniprot ID P35222) (Homo sapiens)
- Construct: 10 nM full-length beta-Catenin (Uniprot ID P35222)
- Sequence (P35222 whole entry): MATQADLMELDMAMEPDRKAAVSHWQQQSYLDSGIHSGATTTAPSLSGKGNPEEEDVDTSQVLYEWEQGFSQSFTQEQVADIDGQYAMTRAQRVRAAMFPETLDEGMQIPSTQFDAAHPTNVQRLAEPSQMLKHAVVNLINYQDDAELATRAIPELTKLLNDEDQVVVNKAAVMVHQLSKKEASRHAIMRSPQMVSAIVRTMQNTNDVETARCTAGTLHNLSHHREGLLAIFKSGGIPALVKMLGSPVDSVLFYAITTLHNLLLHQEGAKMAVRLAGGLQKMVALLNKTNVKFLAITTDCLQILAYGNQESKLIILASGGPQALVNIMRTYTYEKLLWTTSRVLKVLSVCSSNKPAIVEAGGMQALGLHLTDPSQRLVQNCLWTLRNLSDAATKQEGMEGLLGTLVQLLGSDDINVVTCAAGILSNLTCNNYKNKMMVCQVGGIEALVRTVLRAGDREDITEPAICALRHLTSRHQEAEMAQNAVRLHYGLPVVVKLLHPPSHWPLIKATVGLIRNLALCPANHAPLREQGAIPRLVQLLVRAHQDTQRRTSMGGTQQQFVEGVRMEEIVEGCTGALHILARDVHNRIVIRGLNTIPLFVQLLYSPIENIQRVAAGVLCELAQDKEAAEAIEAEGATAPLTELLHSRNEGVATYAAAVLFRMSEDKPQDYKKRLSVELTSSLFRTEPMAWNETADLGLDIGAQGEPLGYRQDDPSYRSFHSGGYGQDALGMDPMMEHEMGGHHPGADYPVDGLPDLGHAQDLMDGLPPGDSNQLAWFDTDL
- Measurement Protocol: Fluorescence polarization IC50 (beta-catenin / 5FAM-TCF4 10-53 competition)
- Format: binding
- Details: fluorescence polarization; read-out: beta-Catenin FP IC50
Some compounds, each annotated with its measured IC50.

{"Compound": "CC(=O)N1CCC[C@]12CCCCCCC1(CCCCCCCCOC(=O)N3CC[C@@](C(=O)N[C@@H](Cc4ccsc4)C(=O)N[C@@H](Cc4csc5ccccc45)C(=O)N[C@@H](CC(N)=O)C(N)=O)(C3)NC(=O)[C@H](CC(C)C)NC(=O)[C@H](Cc3ccccc3)NC(=O)[C@H](C)NC(=O)[C@H](C)NC(=O)[C@H](CN(CC(=O)O)CC(F)(F)F)NC(=O)[C@H](CC(=O)O)NC1=O)NC(=O)[C@H](CC(C)(C)C)NC(=O)[C@H](CC(=O)O)NC2=O (stereo partly drawn)", "Value Unit": "µM", "IC50": 0.095}
{"Compound": "CC(=O)N1CCC[C@]12CC=CCCCC1(CCCC=CCCCOC(=O)N3CC[C@@](C(=O)N[C@@H](Cc4ccccc4C(F)(F)F)C(=O)N[C@@H](Cc4csc5ccccc45)C(=O)N[C@@H](CCC(N)=O)C(=O)N[C@@H](CC(C)C)C(=O)N[C@@H](CC(C)C)C(N)=O)(C3)NC(=O)[C@H](CC(C)C)NC(=O)[C@H](Cc3ccccc3)NC(=O)[C@H](C)NC(=O)[C@H](C)NC(=O)[C@H](Cc3cccc(C(=O)O)c3)NC(=O)[C@H](CC(=O)O)NC1=O)NC(=O)[C@H](CC(C)(C)C)NC(=O)[C@H](CC(=O)O)NC2=O (stereo partly drawn)", "Value Unit": "µM", "IC50": 0.33}
{"Compound": "CC[C@@H]1NC(=O)[C@H](CC(=O)O)NC(=O)[C@]2(CC=CCCCC3(CCCC=CCCCCCC[C@@](C)(C(=O)N[C@@H](Cc4ccccc4)C(=O)N[C@@H](Cc4csc5ccccc45)C(=O)N[C@@H](CCC(N)=O)C(N)=O)NC(=O)[C@H](CC(N)=O)NC(=O)[C@H](Cc4ccccc4)NC(=O)[C@H](C)NC(=O)[C@H](C)NC(=O)[C@H](CCC(=O)O)NC(=O)[C@H](CC(=O)O)NC3=O)NC1=O)CCCN2C(C)=O (stereo partly drawn) [I-474]", "Value Unit": "µM", "IC50": 0.043}

This collection of values is drawn from patent US20240116985A1.
